Hello, the source for this data is ChEMBL document CHEMBL4130453, in case you need it.

assay: Protein binding in mouse plasma; format: ADME, cell-free; conditions: read-out: PPB (converted)

Input Smiles | fraction unbound
O=C(O)CCc1cc(F)c(OCc2c(-c3ccc(Cl)cc3F)nsc2C(F)(F)F)c(F)c1 | 0.0032

###

Quick reference: pEC50 of the listed items.
molecular target: Free fatty acid receptor 4 (Homo sapiens); assay: Agonist activity at PK-tagged human GPR120 long isoform expressed in CHOK1 cells co-expressing EA-tagged beta-arrestin assessed as beta-gal enzyme complex formation after 90 mins by enzyme fragment complementation assay; assay type: cell-based
Sequence (Q5NUL3 whole entry, the tested form may be a part, canonical isoform): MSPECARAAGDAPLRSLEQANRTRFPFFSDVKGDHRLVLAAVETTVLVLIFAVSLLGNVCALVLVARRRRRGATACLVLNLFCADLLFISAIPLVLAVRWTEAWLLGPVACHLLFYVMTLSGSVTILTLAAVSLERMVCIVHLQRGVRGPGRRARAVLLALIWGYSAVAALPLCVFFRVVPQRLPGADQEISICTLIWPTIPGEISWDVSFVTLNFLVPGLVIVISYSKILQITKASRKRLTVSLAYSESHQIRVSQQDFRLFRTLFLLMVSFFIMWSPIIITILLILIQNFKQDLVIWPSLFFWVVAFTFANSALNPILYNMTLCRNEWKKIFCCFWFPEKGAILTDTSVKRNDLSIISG
pEC50: −log10 of the molar value.

Input Smiles | pEC50
Cc1snc(-c2ccc(Cl)cc2)c1COc1ccc(CCC(=O)O)c(C)c1C | 6.89
Cc1c(CCC(=O)O)ccc(OCc2c(C(F)(F)F)nsc2-c2ccc(Cl)cc2)c1C | 6.98
O=C(O)CCc1cc(F)c(OCc2c(-c3ccc(OC(F)(F)F)cc3)nsc2C(F)(F)F)c(F)c1 | 7.00
CCc1ccc(-c2nsc(C(F)(F)F)c2COc2ccc(CCC(=O)O)c(C)c2C)cc1 | 6.68
